# study.target: CYP2D6*2 (Homo sapiens, UniProt P10635, R296C/S486T)
# experiment.description: Soret
# Assay type: binding
Quick reference: pKd of the listed items.
Keep it numeric: pKd is minus log10 of the concentration in mol/L.

Sample answers from the record:
molecule	property.measured	measurement
C=C(C)[C@@H]1CCC(C)=C[C@H]1c1c(O)cc(CCC)cc1O	pKd	4.94
CCCCCc1cc(O)c2c(c1)OC(C)(CCC=C(C)C)C=C2 (stereo not drawn)	pKd	5.10
CCCCCc1cc(O)c2c(c1)OC(C)(C)[C@@H]1CCC(C)=C[C@@H]21 [THC, Tetrahydrocannabinol]	pKd	5.46
CCCCCc1cc(O)c2c(c1)OC(C)(C)c1ccc(C)cc1-2	pKd	5.29
CCCc1cc(O)c2c(c1)OC(C)(C)[C@@H]1CCC(C)=C[C@@H]21 [THCV, Δ9-Tetrahydrocannabivarin]	pKd	4.94

Recorded pKd of `CCCCCc1cc(O)c(C/C=C(\C)CCC=C(C)C)c(O)c1` , please. 4.98

----------
# study.target: WT CYP2D6 (Homo sapiens, UniProt P10635)
# experiment.description: Soret
# Type: binding
# settings: read-out: Ks; WT CYP2D6 nanodiscs, 1 μM CYP2D6, room temperature, N=3, ± SEM
property.measured: pKd
Keep it numeric: pKd is minus log10 of the concentration in mol/L.

Test system WT CYP2D6 (Homo sapiens, UniProt P10635); read-out pKd; what value for C=C1CC/C=C(\C)CC[C@@H]2[C@@H]1CC2(C)C [β-CP, β-carophyllene] ? 5.37

----------
Quick reference: Kd of the listed items.
# study.target: CYP2D6*17 (Homo sapiens, UniProt P10635, R296C/S486T/T107I)
# experiment.description: Soret
# Format: binding
# settings: Ks, CYP2D6*17 nanodiscs, 1 μM CYP2D6, room temperature, N=3, ± SEM
The answer is to be given in µM; state only the numeric part.

Recorded Kd of `CCCCCc1cc(O)c2c(c1)OC(C)(C)c1ccc(C)cc1-2` , please. 9

Recorded Kd of `C=C(C)[C@@H]1CCC(C)=C[C@H]1c1c(O)cc(CCC)cc1O` , please. 8.6

Recorded Kd of CCCCCc1cc(O)c2c(c1)OC(C)(CCC=C(C)C)C=C2 (stereo not shown) , please. 11.6

Recorded Kd of `CCCCCc1cc(O)c(C/C=C(\C)CCC=C(C)C)c(O)c1` , please. 11.8

----------
Quick reference: reduction in DXM metabolism of the listed items.
# study.target: WT CYP2D6 (Homo sapiens, UniProt P10635)
# experiment.description: Preliminary inhibition of CYP2D6-mediated DXM metabolism by pCBs
# Assay type: biochemical
# settings: 40 μM pCB, 40 μM DXM, WT CYP2D6 nanodiscs, 2 minutes, vs complete metabolism of DXM
The answer is to be given in %; state only the numeric part.

compound	study.target	unit.abbreviation	reduction in DXM metabolism
CCCCCc1cc(O)c2c(c1)OC(C)(CCC=C(C)C)C=C2 (stereo not drawn)	WT CYP2D6 (Homo sapiens, UniProt P10635)	%	61.6

Recorded reduction in DXM metabolism of `C=C(C)[C@@H]1CCC(C)=C[C@H]1c1c(O)cc(CCCCC)cc1O` , please. 60.7

Recorded reduction in DXM metabolism of CCCc1cc(O)c2c(c1)OC(C)(C)[C@@H]1CCC(C)=C[C@@H]21 [THCV, Δ9-Tetrahydrocannabivarin] , please. 60.5
